Cited source: the RNAGym collection of RNA variant scans (doi:10.7554/elife.80360)

B1: HDV Ribozyme (parent)
chain: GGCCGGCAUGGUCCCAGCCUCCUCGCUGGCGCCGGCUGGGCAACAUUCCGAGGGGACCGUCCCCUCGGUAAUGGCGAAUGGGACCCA

Variants of: B1
EXPERIMENT: self-cleavage, relative activity (ratio to wild type); higher = more cleavage; co-transcriptional
REPORTED METRIC: self-cleavage
One number for each entry.

Give me self-cleavage for each of these variants, listed below.
1. GGCCGGCAUGGUGCCAGCCUCCUCGCUGGCGCCGGCUGGGCAACAUUCCGAGGGGACCGUCCCCUCGGUAAUGGCGAAGGGGACCCA [C13G U79G]
2. GGCCGGCAUGGUCCCAGCCUCCUCCCUGGCGCCGGCUGGGCUACAUUCCGAGGGGACCGUCCCCUCGGUAAUGGCGAAUGGGACCCA [G25C A42U]

Found:
1. 0.0755
2. 0

Give me self-cleavage for each of these variants, listed below.
1. GGCCGGCAUGGUCCCAGCCUCCUCGCUGGCGUCGGCUGGGCAACAUUCCGAGGGGACCGUCCCCUCGGUAAUGGCGAAUGGGACCCU [C32U A87U]
2. GGCCGGCAUGGUCCCAGCCUCCUCGCUGGCGCCGGCUGGGCAACAUUCCGAGGGAAACGUCCCCUCGGUAAUGGCGAAUGGGACCCA [G55A C57A]
3. GGCCGGCAUGGUCCCAGCCUCCUCGCUGGCGCCGGCUGGGCAACAUUCCGAGGGGACCGGCCCCUCGGUAAUGGCGAAUGGUACCCA [U60G G82U]
4. GGCCGGCAUGGUCCCAGCCUCCUCGCUGGCGCCGGCUGGGCAACAUUCCGAGGGGACCGUUCCCUCGUUAAUGGCGAAUGGGACCCA [C61U G68U]
5. GGCCGGCACGGUCCCAGCCUCGUCGCUGGCGCCGGCUGGGCAACAUUCCGAGGGGACCGUCCCCUCGGUAAUGGCGAAUGGGACCCA [U9C C22G]
6. GGCCGGCAUGGUCCCAGCCUCCUCGCUGGCGCCGGCUGAGCAACAUUCCGAGGGGACCGUCCCCUCGGUAGUGGCGAAUGGGACCCA [G39A A71G]

Found:
1: 1.03; 2: 0.927; 3: 0.309; 4: 0.95; 5: 0; 6: 0.332
